tested_on: T1, EsCas13d, nuclease-dead (Eubacterium siraeum, UniProt B0MS50, R295A;H300A;R849A;H854A)
T1 sequence: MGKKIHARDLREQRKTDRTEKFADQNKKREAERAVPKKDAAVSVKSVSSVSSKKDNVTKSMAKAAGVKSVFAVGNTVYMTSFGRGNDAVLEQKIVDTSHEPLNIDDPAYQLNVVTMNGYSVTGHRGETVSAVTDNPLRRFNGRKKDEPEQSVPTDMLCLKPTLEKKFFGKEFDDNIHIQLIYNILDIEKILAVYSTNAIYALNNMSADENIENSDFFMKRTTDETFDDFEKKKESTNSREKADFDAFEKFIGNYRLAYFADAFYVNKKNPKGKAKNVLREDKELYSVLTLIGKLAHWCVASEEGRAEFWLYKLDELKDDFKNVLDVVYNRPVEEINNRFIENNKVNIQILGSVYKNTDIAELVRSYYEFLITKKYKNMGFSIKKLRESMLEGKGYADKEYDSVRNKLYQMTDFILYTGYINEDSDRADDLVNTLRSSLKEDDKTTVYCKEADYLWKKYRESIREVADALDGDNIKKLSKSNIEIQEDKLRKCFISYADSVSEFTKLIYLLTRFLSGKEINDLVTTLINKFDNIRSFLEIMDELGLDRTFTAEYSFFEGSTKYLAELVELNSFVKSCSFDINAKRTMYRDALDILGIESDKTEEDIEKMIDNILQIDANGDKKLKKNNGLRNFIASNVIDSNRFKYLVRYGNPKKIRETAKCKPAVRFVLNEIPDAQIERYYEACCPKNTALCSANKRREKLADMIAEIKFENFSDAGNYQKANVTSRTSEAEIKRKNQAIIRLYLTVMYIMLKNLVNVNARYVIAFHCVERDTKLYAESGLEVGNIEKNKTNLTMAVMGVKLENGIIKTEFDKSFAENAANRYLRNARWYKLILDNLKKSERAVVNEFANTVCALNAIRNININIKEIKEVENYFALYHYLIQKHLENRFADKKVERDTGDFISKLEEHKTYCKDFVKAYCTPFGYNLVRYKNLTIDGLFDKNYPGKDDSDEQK
experiment_description: crRNA (strand 1, pre-loaded); Mg2+; 40 mM Tris-HCl pH 7.5, 150 mM NaCl, 6 mM MgCl2, 1 mM DTT, 0.1% Tween-20, 0.2 mg/ml BSA; 25 C; 10 min per concentration, then washed
study_conditions: tags: His6-TwinStrep-SUMO cleaved; N-terminal SNAP kept (SNAP-Surface 488); label: 3' end held by stalled T7 RNA polymerase
pKd: −log10 of the molar value.
outcome_measure: pKd

binder="target 1 G15C,G17U (mixed) RNA 1: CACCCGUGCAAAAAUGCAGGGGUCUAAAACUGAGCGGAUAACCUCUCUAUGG RNA 2: GGGAAUGGAUCCACAUCUACGAAUUCGUACCAUAUACAGGUUAUCCGCUCACCGAGAUCGGAAGAGCACACGU" outcome_measure=pKd recorded_value=7.05
binder="target 1 insA 3' of 22,insG 3' of 10 (mixed) RNA 1: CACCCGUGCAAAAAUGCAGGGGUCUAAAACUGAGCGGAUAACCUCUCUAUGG RNA 2: GGGAAUGGAUCCACAUCUACGAAUUCGUACACAUAGAGAGGUUGAUCCGCUCACCGAGAUCGGAAGAGCACACGU" outcome_measure=pKd recorded_value=7.26
binder="target 1 A9G,A18C (mixed) RNA 1: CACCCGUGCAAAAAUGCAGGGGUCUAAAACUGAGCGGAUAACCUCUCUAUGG RNA 2: GGGAAUGGAUCCACAUCUACGAAUUCGUACCAUCGAGAGGUUGUCCGCUCACCGAGAUCGGAAGAGCACACGU" outcome_measure=pKd recorded_value=7.19

The reported measurements were obtained from paper PMC10786891.
